- Tested on: yellow nutsedge
- TEST METHOD NOTES: Test C pre-/postemergence test
- Type: in vivo, Cyperus esculentus
- CONDITION: 62 g ai/ha, Preemergence; scale 0 to 100
- Description: Seeds of plant species selected from blackgrass (Alopecurus myosuroides), downy brome (Bromus tectorum), green foxtail (Setaria viridis), Italian ryegrass (Lolium multiflorum), wheat (Triticum aestivum), wild oat (Avena fatua), catchweed bedstraw (Galium aparine), Russian thistle (Salsola kali), […] […]
METRIC: Nutsedge, Yellow plant response rating
Please give only the number in your answer, with no unit.

- COMPOUND: "CC(c1c(C(F)(F)F)nn(C)c1OC(F)F)S(=O)(=O)c1cc(C(C)(C)C)cc[n+]1[O-] (racemic) [Compound 26]"
  Nutsedge, Yellow plant response rating: 50

In: Return reported Nutsedge, Yellow plant response rating; argument: CC(c1c(C(F)(F)F)nn(CC(F)(F)F)c1Cl)[S+]([O-])c1cccc[n+]1[O-] (stereo not shown) [Compound 46]
Out: 60

In: Which Nutsedge, Yellow plant response rating is listed for CC(Oc1c(C[S+]([O-])c2cccc[n+]2[O-])c(C(F)(F)F)nn1C)C(F)(F)F (stereo not shown) [Compound 77] ?
Out: 100
